Reference source for all entries: patent US9409952B2

Test: PAMPA (parallel artificial membrane permeability assay)
Assay type: in vitro ADME
Settings: PAMPA; membrane permeation rate (Pe); 50 mM MOPSO buffer pH 6.5 with 5.0% glycocholic acid, 37° C., 18 hours; read-out: iPAMPA Pe
Positions of bridges follow the written chain, without caps; N, C: chain ends. Non-standard residues stand in square brackets, D forms with d. Residues, ends and D or L forms follow the SMILES beside them. *: point of attachment. NMeF = CN[C@@H](Cc1ccccc1)C(=O)O; NMeL = CN[C@@H](CC(C)C)C(=O)O; NMeA = CN[C@@H](C)C(=O)O; Piperidide = C1CCN(*)CC1; dNMeA = CN[C@H](C)C(=O)O

molecule	reading-unit	Papp at 18 hours, 50 µM
CC[C@H](C)[C@@H]1NC(=O)[C@H](CC(C)C)N(C)C(=O)[C@H](C)N(C)C(=O)[C@H](Cc2ccccc2)N(C)C(=O)[C@@H](C)N(C)C(=O)C[C@@H](C(=O)N2CCCCC2)NC(=O)[C@H](CC(C)C)N(C)C(=O)[C@H]([C@@H](C)O)NC(=O)[C@H](CO)NC(=O)[C@H](CC(C)C)NC(=O)[C@H](C)N(C)C(=O)[C@H](CC(C)C)N(C)C(=O)[C@H](Cc2ccccc2)NC(=O)[C@H](CC(C)C)N(C)C1=O [DP-959] ([dNMeA][NMeF][NMeA][NMeL]I[NMeL]F[NMeL][NMeA]LST[NMeL]D-Piperidide; lactam N-14)	×10⁻⁶ cm/s	2.9

====

Experiment: Metabolic stability in human hepatic microsome
Type: in vitro ADME
Settings: microsomes, pH 7.4; human hepatic microsome, NADPH(+); read-out: CL NADPH(+)
Starred links: 1 amine or outer side, 2 acyl side, 3 side chain; linkers in the order of their positions; H or OH if unused. Positions of bridges follow the written chain, without caps; N, C: chain ends. Non-standard residues stand in square brackets, D forms with d. Residues, ends and D or L forms follow the SMILES beside them. *: point of attachment. NMeF = CN[C@@H](Cc1ccccc1)C(=O)O; NMeGABA = CN(CCCC(=O)[*:2])[*:1]; NMeL = CN[C@@H](CC(C)C)C(=O)O; NMeV = CN[C@H](C(=O)O)C(C)C; NMeS = CN[C@@H](CO)C(=O)O; NMeA = CN[C@@H](C)C(=O)O; Piperidide = C1CCN(*)CC1; β3hA = C[C@H](N)CC(=O)O; Sar = CNCC(=O)O; tBu = CC(C)(C)*
molecules and their reported microsomal CLint at 1 uM

molecule	reading-unit	microsomal CLint at 1 uM
CC[C@H](C)[C@@H]1NC(=O)[C@H](CC(C)C)N(C)C(=O)[C@H](C)NC(=O)CCCN(C)C(=O)C[C@H](C)NC(=O)[C@H]([C@@H](C)O)NC(=O)[C@H](Cc2ccccc2)NC(=O)[C@H](C(C)C)N(C)C(=O)[C@H](CC(C)C)N(C)C1=O [DP-823] (cyclo(A[NMeL]I[NMeL][NMeV]FT[β3hA][NMeGABA]))	µL/min/mg	254
CC(C)C[C@H]1C(=O)N[C@H](C(=O)N2CCCCC2)CC(=O)N(C)CCCC(=O)N(C)[C@@H](Cc2ccccc2)C(=O)N[C@@H]([C@@H](C)O)C(=O)N(C)[C@@H](C)C(=O)N[C@@H](COC(C)(C)C)C(=O)N1C [DP-680] ([NMeGABA][NMeF]T[NMeA]S(tBu)[NMeL]D-Piperidide; lactam N-7)	µL/min/mg	96
CC(C)C[C@@H]1NC(=O)[C@H](CO)N(C)C(=O)[C@H](CC(C)C)N(C)C(=O)[C@H](CC(C)C)N(C)C(=O)[C@H](CC(C)C)N(C)C(=O)[C@@H](C)NC(=O)C[C@H](C)NC(=O)[C@H](CC(C)C)N(C)C(=O)[C@H](CC(C)C)NC(=O)[C@H](CC(C)C)N(C)C(=O)CN(C)C1=O [DP-639] (cyclo(L[NMeL][β3hA][dA][NMeL][NMeL][NMeL][NMeS]L[Sar][NMeL]))	µL/min/mg	134

====

Assay: PAMPA (parallel artificial membrane permeability assay)
Assay type: in vitro ADME
Conditions: PAMPA; membrane permeation rate (Pe); 50 mM MOPSO buffer pH 6.5 with 5.0% glycocholic acid, 37° C., 18 hours; read-out: iPAMPA Pe
Positions of bridges follow the written chain, without caps; N, C: chain ends. Non-standard residues stand in square brackets, D forms with d. Residues, ends and D or L forms follow the SMILES beside them. *: point of attachment. NMeF = CN[C@@H](Cc1ccccc1)C(=O)O; NMeL = CN[C@@H](CC(C)C)C(=O)O; NMeS = CN[C@@H](CO)C(=O)O; Piperidide = C1CCN(*)CC1; β3hA = C[C@H](N)CC(=O)O; Sar = CNCC(=O)O

molecule	Papp at 18 hours, 50 µM, ×10⁻⁶ cm/s
CC(C)C[C@@H]1NC(=O)[C@H]([C@@H](C)O)NC(=O)[C@H](CC(C)C)N(C)C(=O)CN(C)C(=O)[C@H](Cc2ccccc2)N(C)C(=O)[C@H](CC(C)C)NC(=O)C[C@@H](C(=O)N2CCCCC2)NC1=O [DP-723] (L[NMeF][Sar][NMeL]TLD-Piperidide; lactam N-7)	26
CC(C)C[C@@H]1NC(=O)[C@H](CC(C)C)N(C)C(=O)[C@H](C(C)C)NC(=O)C[C@H](C)NC(=O)CN(C)C(=O)[C@H](CC(C)C)NC(=O)[C@H](CO)N(C)C(=O)[C@H](CC(C)C)N(C)C(=O)[C@H](CC(C)C)N(C)C(=O)[C@H](CC(C)C)N(C)C(=O)[C@@H](CC(C)C)NC1=O [DP-640] (cyclo(L[Sar][β3hA]V[NMeL]L[dL][NMeL][NMeL][NMeL][NMeS]))	50

====

Assay: PAMPA (parallel artificial membrane permeability assay)
Format: in vitro ADME
Conditions: PAMPA; membrane permeation rate (Pe); 50 mM MOPSO buffer pH 6.5 with 5.0% glycocholic acid, 37° C., 18 hours; read-out: iPAMPA Pe
Starred links: 1 amine or outer side, 2 acyl side, 3 side chain; linkers in the order of their positions; H or OH if unused. Positions of bridges follow the written chain, without caps; N, C: chain ends. Non-standard residues stand in square brackets, D forms with d. Residues, ends and D or L forms follow the SMILES beside them. *: point of attachment. NMeF = CN[C@@H](Cc1ccccc1)C(=O)O; NMeGABA = CN(CCCC(=O)[*:2])[*:1]; NMeI = CC[C@H](C)[C@H](NC)C(=O)O; NMeβAla = CN(CCC(=O)[*:2])[*:1]; NMeL = CN[C@@H](CC(C)C)C(=O)O; NMeA = CN[C@@H](C)C(=O)O; Piperidide = C1CCN(*)CC1; β3hA = C[C@H](N)CC(=O)O; tBu = CC(C)(C)*

molecule	reading-unit	Papp at 18 hours, 50 µM
CC[C@H](C)[C@H]1C(=O)N[C@H](C(=O)N2CCCCC2)CC(=O)N(C)CCC(=O)N[C@@H](Cc2ccccc2)C(=O)N(C)[C@@H](CC(C)C)C(=O)N[C@@H](COC(C)(C)C)C(=O)NCC(=O)N2CCC[C@H]2C(=O)N[C@@H]([C@@H](C)O)C(=O)N[C@@H](CC(C)C)C(=O)N(C)[C@@H](C)C(=O)N[C@@H](Cc2ccccc2)C(=O)N1C [DP-222] ([NMeβAla]F[NMeL]S(tBu)GPTL[NMeA]F[NMeI]D-Piperidide; lactam N-12)	×10⁻⁶ cm/s	16
CC[C@H](C)[C@@H]1NC(=O)[C@H](C)N(C)C(=O)[C@H]([C@@H](C)O)NC(=O)[C@H](Cc2ccccc2)N(C)C(=O)CNC(=O)[C@H](CC(C)C)N(C)C(=O)[C@H](C(C)C)NC(=O)[C@H](CC(C)C)N(C)C(=O)[C@H](Cc2ccccc2)NC(=O)[C@H](C)N(C)C(=O)CCCN(C)C(=O)C[C@@H](C(=O)N2CCCCC2)NC1=O [DP-108] ([NMeGABA][NMeA]F[NMeL]V[NMeL]G[NMeF]T[NMeA]ID-Piperidide; lactam N-12)	×10⁻⁶ cm/s	22
CC(C)C[C@H]1C(=O)N(C)[C@@H](Cc2ccccc2)C(=O)N(C)[C@@H](CC(C)C)C(=O)N[C@@H](C)CC(=O)N[C@H](C(C)C)C(=O)N[C@@H](C)C(=O)N[C@@H]([C@@H](C)O)C(=O)N(C)[C@@H](C)C(=O)N[C@@H](Cc2ccccc2)C(=O)N1C [DP-788] (cyclo(AT[NMeA]F[NMeL][NMeF][NMeL][β3hA][dV]))	×10⁻⁶ cm/s	49

====

Assay: Metabolic stability in human hepatic microsome
Assay type: in vitro ADME
Conditions: microsomes, pH 7.4; human hepatic microsome, NADPH(+); read-out: CL NADPH(+)
Starred links: 1 amine or outer side, 2 acyl side, 3 side chain; linkers in the order of their positions; H or OH if unused. Positions of bridges follow the written chain, without caps; N, C: chain ends. Non-standard residues stand in square brackets, D forms with d. Residues, ends and D or L forms follow the SMILES beside them. *: point of attachment. NMeF = CN[C@@H](Cc1ccccc1)C(=O)O; NMeβAla = CN(CCC(=O)[*:2])[*:1]; NMeL = CN[C@@H](CC(C)C)C(=O)O; NMeV = CN[C@H](C(=O)O)C(C)C; NMeA = CN[C@@H](C)C(=O)O; Piperidide = C1CCN(*)CC1; Sar = CNCC(=O)O; tBu = CC(C)(C)*
observable: microsomal CLint at 1 uM (µL/min/mg)

compound	observable	reading-unit	val
CC(C)C[C@@H]1NC(=O)[C@H]([C@@H](C)O)NC(=O)[C@H](CC(C)C)N(C)C(=O)[C@H](Cc2ccccc2)N(C)C(=O)[C@H](C)N(C)C(=O)C[C@@H](C(=O)N2CCCCC2)NC(=O)[C@H](COC(C)(C)C)NC(=O)[C@H](CC(C)C)N(C)C1=O [DP-696] ([NMeA][NMeF][NMeL]TL[NMeL]S(tBu)D-Piperidide; lactam N-8)	microsomal CLint at 1 uM	µL/min/mg	194
CC(C)C[C@@H]1NC(=O)[C@H]([C@@H](C)O)NC(=O)[C@H](CC(C)C)N(C)C(=O)[C@H](Cc2ccccc2)N(C)C(=O)CN(C)C(=O)[C@@H](C)NC(=O)C[C@@H](C(=O)N2CCCCC2)NC1=O [DP-742] ([dA][Sar][NMeF][NMeL]TLD-Piperidide; lactam N-7)	microsomal CLint at 1 uM	µL/min/mg	175
CC(C)C[C@H]1C(=O)N[C@H](C(=O)N(C)[C@@H](Cc2ccccc2)C(=O)N[C@@H](C)C(=O)N2CCCCC2)CC(=O)N(C)CCC(=O)N(C)[C@@H](C)C(=O)N[C@@H](C(C)C)C(=O)N(C)[C@@H](C(C)C)C(=O)N(C)[C@@H](Cc2ccccc2)C(=O)N(C)CC(=O)N[C@@H]([C@@H](C)O)C(=O)N(C)[C@@H](C)C(=O)N1C [DP-449] ([NMeβAla][NMeA]V[NMeV][NMeF][Sar]T[NMeA][NMeL]D[NMeF]A-Piperidide; lactam N-10)	microsomal CLint at 1 uM	µL/min/mg	6
